Reference source: PubChem BioAssay AID1851

molecular target: Cytochrome P450 3A4 (Homo sapiens) (UniProt P08684); test: Cytochrome panel assay with activity outcomes; settings: recombinant CYP, pro-luciferin dealkylation, luminescence, p450-cyp3a4; series mostly up to 57.1 µM; for activity, negative = inhibition: % is set by controls: 0 for no effect and ±100 for the full control effect
Sequence (P08684 whole entry, looked up): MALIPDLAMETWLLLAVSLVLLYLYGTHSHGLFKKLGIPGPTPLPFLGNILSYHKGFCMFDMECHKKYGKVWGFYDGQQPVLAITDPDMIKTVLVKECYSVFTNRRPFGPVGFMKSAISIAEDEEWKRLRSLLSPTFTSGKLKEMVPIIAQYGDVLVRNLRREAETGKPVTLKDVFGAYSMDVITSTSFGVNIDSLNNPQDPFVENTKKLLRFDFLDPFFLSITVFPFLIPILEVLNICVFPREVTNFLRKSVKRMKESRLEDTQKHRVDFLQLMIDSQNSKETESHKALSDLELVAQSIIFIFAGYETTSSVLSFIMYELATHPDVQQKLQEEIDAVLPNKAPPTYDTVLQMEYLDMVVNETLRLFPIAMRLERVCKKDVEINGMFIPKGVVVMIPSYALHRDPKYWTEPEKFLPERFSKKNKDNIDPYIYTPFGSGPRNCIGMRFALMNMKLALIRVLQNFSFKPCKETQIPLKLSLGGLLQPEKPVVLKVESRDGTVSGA
In all, about 16,000 compounds went through this assay and about 5,100 (32%) were called active. Not shown: some 25% with an inconclusive outcome. This is one part of the list.
Give measured activity, negative = inhibition for each item. Keep answers brief.

O=C1N=C(N2CCOCC2)S/C1=C/c1cccs1; -4.33% [at 2.29 µM] (inactive)
CC(C)CO/N=C1/C[C@@H](O)[C@@H](O)[C@@H]2[C@H]3C(=O)N(c4ccc(F)cc4F)C(=O)[C@@H]3CC[C@H]12; -8.15% [at 11.4 µM] (inactive)
NCCSCCc1ccccc1; -8.42% [at 11.4 µM] (inactive)

Hi, could you look up activity, negative = inhibition for each item in my list?
1. O=c1c[n+](CCCC[n+]2cc(=O)o[nH]2)[nH]o1
2. c1ccc(CCN2CCN=C2Cc2ccccc2)cc1
3. N#C[C@H]1CN[C@H](N)N[C@@H]1N
4. COC(=O)C/C=C1\c2ccccc2[C@H](OC)[C@H]1C
5. CC(C)(C)NC[C@@H](O)c1ccc(O)c(CO)n1
6. O=C1NCCc2c1[nH]c1ccccc21
7. CCSc1nnc(NC(=O)COc2ccc3ccccc3c2)s1

Output line:
1: -11.2% [at 11.4 µM] (inactive); 2: 7.9% [at 11.4 µM] (inactive); 3: -6.92% [at 11.4 µM] (inactive); 4: -2.89% [at 11.4 µM] (inactive); 5: 2.12% [at 11.4 µM] (inactive); 6: 17.8% [at 2.29 µM] (inactive); 7: -4.8% [at 2.29 µM] (inactive)

====

biological target: Cytochrome P450 3A4 (Homo sapiens) (UniProt P08684); assay: Cytochrome panel assay with activity outcomes; conditions: recombinant CYP, pro-luciferin dealkylation, luminescence, p450-cyp3a4; series mostly up to 57.1 µM
Screen size: about 16,000 compounds; about 5,100 (32%) were called active. Roughly 25% stayed inconclusive and do not appear here. The call rests on the fitted dose curve; in most records, active means well fitted curve in the direction sought with a large enough effect; inconclusive means small, poorly fitted or top-dose-only effect, or effect the other way; inactive means no such curve, though single readings can be large or run the other way. Some of the results follow.
I would appreciate it if you answered using one of these outcomes: true (1) for active, false (0) for inactive

COc1ccccc1-c1nccc(NCc2cccc(C)c2)n1; true (1)
CS(=O)(=O)Nc1cccc(-c2ccc3ncnc(NCc4cccs4)c3c2)c1; true (1)
CC(C)NC[C@H](O)c1cc(O)cc(O)c1; false (0)
COc1cccc(N=c2oc3c(C)ncc(CO)c3cc2C(N)=O)c1; true (1)

Input line: What classification did CC1(C)CC(=O)C2=C(C1)Oc1nc3ccccc3cc1C2C(C#N)C#N (stereo unspecified) end up with in this test?
Output line: true (1)

Input line: What classification did `CS(=O)(=O)Nc1cccc(-c2cncnc2NCc2ccccc2)c1` end up with in this test?
Output line: true (1)

====

target: Cytochrome P450 3A4 (Homo sapiens) (UniProt P08684); assay: Cytochrome panel assay with activity outcomes; settings: recombinant CYP, pro-luciferin dealkylation, luminescence, p450-cyp3a4; series mostly up to 57.1 µM; for activity, negative = inhibition: % is set by controls: 0 for no effect and ±100 for the full control effect
The campaign covered roughly 16,000 compounds. About 5,100 (32%) were called active. About 25% were inconclusive and are not listed. This is one part of the list.
MEASURED PROPERTY: activity, negative = inhibition

CCCCCCCCCn1cc(C(C)=O)c(=O)[nH]c1=O; -7.53% [at 2.29 µM] (inactive)
Cn1c(=O)n(C)c2cc(/C=N/n3cnnc3)ccc21; 2.58% [at 2.29 µM] (inactive)
N[C@@](CCc1ccccc1)(C(=O)O)c1ccccc1; -0.157% [at 11.4 µM] (inactive)
CC1(C)C2([N+](=O)[O-])CN3CC1([N+](=O)[O-])CN(C2)C3c1ccccc1 (stereo unspecified); 0.512% [at 2.29 µM] (inactive)
CN(C)CCCc1c2ccccc2nc2ccc(Cl)cc12; -1.41% [at 11.4 µM] (inactive)

Now look at this entry.
Input line: State the recorded activity, negative = inhibition for this entry: `Cc1cnn(-c2cc(N/N=C/c3ccccc3F)ncn2)c1`
Output line: -16.7% [at 2.29 µM] (inactive)
